# test_target: human ether-à-go-go-related gene (hERG) potassium channel (human, UniProt Q12809);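 note: peak tail current of the secondary pulse compared with the same well before compound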
# Sequence (Q12809 whole entry, looked up): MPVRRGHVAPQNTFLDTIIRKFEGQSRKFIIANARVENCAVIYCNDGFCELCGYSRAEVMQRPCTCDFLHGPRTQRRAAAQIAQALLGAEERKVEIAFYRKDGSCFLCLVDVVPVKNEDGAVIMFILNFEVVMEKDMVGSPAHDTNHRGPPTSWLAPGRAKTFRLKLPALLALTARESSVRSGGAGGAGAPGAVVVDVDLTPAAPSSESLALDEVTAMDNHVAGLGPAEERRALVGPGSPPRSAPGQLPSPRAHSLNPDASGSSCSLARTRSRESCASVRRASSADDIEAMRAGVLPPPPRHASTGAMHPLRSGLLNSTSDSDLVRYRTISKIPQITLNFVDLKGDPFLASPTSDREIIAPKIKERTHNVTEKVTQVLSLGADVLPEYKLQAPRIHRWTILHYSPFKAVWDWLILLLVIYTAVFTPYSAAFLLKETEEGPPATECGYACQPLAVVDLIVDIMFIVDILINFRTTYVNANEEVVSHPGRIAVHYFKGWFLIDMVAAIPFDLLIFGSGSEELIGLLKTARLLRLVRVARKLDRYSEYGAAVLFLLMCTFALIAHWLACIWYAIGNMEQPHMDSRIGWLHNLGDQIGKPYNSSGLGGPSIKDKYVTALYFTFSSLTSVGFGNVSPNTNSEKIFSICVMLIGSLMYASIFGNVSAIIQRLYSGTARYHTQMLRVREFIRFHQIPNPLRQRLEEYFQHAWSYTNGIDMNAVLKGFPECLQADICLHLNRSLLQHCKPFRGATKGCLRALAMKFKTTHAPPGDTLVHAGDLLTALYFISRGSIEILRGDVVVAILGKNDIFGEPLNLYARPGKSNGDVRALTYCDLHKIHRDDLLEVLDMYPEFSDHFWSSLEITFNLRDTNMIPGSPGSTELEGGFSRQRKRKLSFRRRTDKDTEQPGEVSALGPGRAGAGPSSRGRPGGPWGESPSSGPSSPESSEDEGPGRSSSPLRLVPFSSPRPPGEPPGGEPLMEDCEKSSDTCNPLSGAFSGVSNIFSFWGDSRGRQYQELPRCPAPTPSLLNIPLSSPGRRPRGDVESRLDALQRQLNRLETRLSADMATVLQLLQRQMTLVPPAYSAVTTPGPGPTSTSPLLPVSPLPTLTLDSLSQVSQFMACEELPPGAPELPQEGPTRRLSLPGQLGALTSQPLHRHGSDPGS
# protocol_description: primary screen, population patch clamp on CHO cells stably expressing hERG; higher = less effect of the substance
About 14,000 (4.5%) of roughly 310,000 compounds showed an effect of 50% or more. The effect is printed as a negative number. The sample as a whole holds a higher share of strong results than the screen did.
Rule: hERG current change (%, negative = inhibition) at 10uM under -20% gives class 0, otherwise class 1.

>>> label_value("CC(C)(C)c1csc(NC(=O)c2cccs2)n1")
"class 1"
>>> label_value("CC(C)(C)c1csc(NC(=O)c2ccc3nccnc3c2)n1")
"class 0"
>>> label_value("CC(C)(C)c1ccc(C(=O)Nc2cccc3ncccc23)cc1")
"class 1"
>>> label_value("CC(C)(C)c1csc(NC(=O)c2c(F)c(F)c(F)c(F)c2F)n1")
"class 0"
>>> label_value("CC(C)(C)c1csc(NC(=O)c2ccncc2)n1")
"class 0"

Request: Does the compound COc1ccc(OCC(=O)Nc2ccccc2OC(F)F)cc1 have recorded hERG current change (%, negative = inhibition) at 10uM that is -20% or more?
Response: class 0
